TARGET: FPR2 (Homo sapiens)
Construct: expressed in transfected cells; host or cells: RBL cells (RBL-FPR2)
Sequence (P25090 whole entry, species assumed): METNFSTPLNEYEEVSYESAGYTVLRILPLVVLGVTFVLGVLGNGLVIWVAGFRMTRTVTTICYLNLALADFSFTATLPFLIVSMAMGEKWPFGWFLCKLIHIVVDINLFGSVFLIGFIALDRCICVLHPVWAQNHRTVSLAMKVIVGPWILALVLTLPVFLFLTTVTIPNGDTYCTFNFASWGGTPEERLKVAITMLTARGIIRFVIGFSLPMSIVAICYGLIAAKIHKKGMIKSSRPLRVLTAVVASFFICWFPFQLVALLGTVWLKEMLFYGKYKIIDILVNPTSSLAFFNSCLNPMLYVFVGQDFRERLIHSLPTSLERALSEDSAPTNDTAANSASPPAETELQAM
ASSAY_OVERVIEW: Change in calcium activity by peptide (Fura-2) in RBL cells overexpressing FPR2
Format: cell-based
MEASUREMENT_PARAMETERS: calcium activity (Fura-2), graded per Table 3, read-out: EC50 for [Ca^2+] FPR2
pEC50: −log10 of the molar value. Peptide text beside a SMILES is read from it.
Consider the following molecules; for each one, report its pEC50.

MOLECULE	OBSERVED_VALUE
CSCC[C@@H](NC(=O)[C@@H](NC(=O)[C@H](CC(N)=O)NC(=O)[C@H](Cc1ccc(O)cc1)NC(=O)[C@H](CCCNC(=N)N)NC(=O)[C@H](Cc1c[nH]c2ccccc12)NC(=O)[C@@H](N)CCCNC(=N)N)C(C)C)C(N)=O [Peptide 159] (HELM PEPTIDE1{R.W.R.Y.N.V.[dM].[am]}$$$$V2.0)	7.00 to 7.96

Now consider a different molecule.
Data request: What is its pEC50 for FPR2 (Homo sapiens)? Entry: CSCC[C@H](NC(C)=O)C(=O)N[C@@H](CCCNC(=N)N)C(=O)N[C@@H](Cc1ccc(O)cc1)C(=O)N[C@@H](Cc1ccc(O)cc1)C(=O)N[C@@H](Cc1ccc(O)cc1)C(=O)N[C@H](CCSC)C(N)=O [Peptide 126] (HELM PEPTIDE1{[ac].M.R.Y.Y.Y.[dM].[am]}$$$$V2.0)
Data returned: 7.00 to 7.96
